The reported numbers originate from paper PMC10301092.

Target: sigma-1 receptor (σ1R) (Homo sapiens, UniProt Q99720)
Sequence (Q99720 whole entry, species assumed): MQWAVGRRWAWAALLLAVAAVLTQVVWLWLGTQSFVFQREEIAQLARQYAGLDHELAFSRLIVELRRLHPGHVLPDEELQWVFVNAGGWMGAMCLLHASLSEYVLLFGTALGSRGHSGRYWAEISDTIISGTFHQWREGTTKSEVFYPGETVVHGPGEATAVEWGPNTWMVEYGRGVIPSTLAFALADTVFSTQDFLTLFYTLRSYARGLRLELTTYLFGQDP
Test: σ1R radioligand binding assay
Overview of reported Ki across a group of compounds:

Recorded Ki of C[C@H]1[C@H]2Cc3ccc(O)cc3[C@]1(C)CCN2CCC(=O)Nc1ccccc1N [Compound 3] , please. > 10 µM

Which measured Ki value corresponds to C[C@H]1[C@H]2Cc3ccc(O)cc3[C@]1(C)CCN2CCCC(=O)Nc1ccccc1N [Compound 5] ? > 10 µM

***
May I ask what Ki has been recorded for C[C@H]1[C@H]2Cc3ccc(O)cc3[C@]1(C)CCN2CCC(=O)Nc1ccccn1 [Compound 7] ? > 10 µM
